List of pIC50 values.
Target chain: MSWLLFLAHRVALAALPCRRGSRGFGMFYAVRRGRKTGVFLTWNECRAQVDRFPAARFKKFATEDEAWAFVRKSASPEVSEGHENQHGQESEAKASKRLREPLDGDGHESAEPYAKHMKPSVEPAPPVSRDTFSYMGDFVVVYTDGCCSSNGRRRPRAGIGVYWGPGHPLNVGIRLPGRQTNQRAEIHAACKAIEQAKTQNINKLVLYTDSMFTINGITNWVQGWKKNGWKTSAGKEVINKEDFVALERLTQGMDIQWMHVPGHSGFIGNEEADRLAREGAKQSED
pIC50: −log10 of the molar value.
Measure Name: pIC50

{"columns": ["Chemical Structure", "Measure Name", "Obs Value"],
 "data": [
  ["Cc1sc(NC(=O)c2ccco2)c(C(N)=O)c1C", "pIC50", 4.54],
  ["NC(=O)c1c(N)sc2c1CCCCC2", "pIC50", 4.97]
]}

---

Target: Gag-Pol polyprotein [600-1029,C879S]/[600-1159,C879S] (Human immunodeficiency virus 1, UniProt P03366, C879S)
Construct: 600-1029; 600-1159
Experiment: FRET-Based RNase H Assay
Settings: pH 8; 20 °C
List of IC50 values.
Measure Name: IC50 (nM)

{"columns": ["Chemical Structure", "Measure Name", "Obs Value"],
 "data": [
  ["Cc1sc(NC(=O)c2ccco2)c(C(N)=O)c1C", "IC50", 3200],
  ["NC(=O)c1c(N)sc2c1CCCCC2", "IC50", 2000]
]}
